- Tested on: 598228-144-R-J1-PDC complex spheroid viability
- assay protocol: Anticancer human tumor 598228-144-R-J1-PDC patient-derived serous endometrial adenocarcinoma cell line growth inhibition [GQUAD]
- conditions: second compound 3.16 µM; first compound 0.0316 µM; stronger effect = lower value
Each item that follows carries a reported viability, T/C.
Field format: number, assumed %, no unit text.

compound: COc1ccc([C@@H](O)c2cc(-c3ncnc4cc(N5CCOCC5)ccc34)c(F)cc2Cl)nn1 + Cc1[nH]c2ccc(F)cc2c1-c1nc2c3cccnc3c3ncccc3c2[nH]1
reported property: viability, T/C
recorded result: 48.3

compound: CCc1c2c(nc3ccc(O)cc13)-c1cc3c(c(=O)n1C2)COC(=O)[C@]3(O)CC + Cc1cnc(CNC(=O)c2c(=O)c3ccc(N4CCCN(C)CC4)nc3n3c2sc2ccccc23)cn1
reported property: viability, T/C
recorded result: 27.9

compound: CCCS(=O)(=O)Nc1ccc(F)c(C(=O)c2c[nH]c3ncc(-c4ccc(Cl)cc4)cc23)c1F + Cc1[nH]c2ccc(F)cc2c1-c1nc2c3cccnc3c3ncccc3c2[nH]1
reported property: viability, T/C
recorded result: 39.3

Hey, 598228-144-R-J1-PDC complex spheroid viability data for Nc1ccn(C2OC(CO)C(O)C2(F)F)c(=O)n1 (stereo unspecified) + Cc1cnc(CNC(=O)c2c(=O)c3ccc(N4CCCN(C)CC4)nc3n3c2sc2ccccc23)cn1 : viability, T/C came out at 60.2

Hey, 598228-144-R-J1-PDC complex spheroid viability data for Cn1ncnc1[C@H]1c2n[nH]c(=O)c3cc(F)cc(c23)N[C@@H]1c1ccc(F)cc1 + Cc1[nH]c2ccc(F)cc2c1-c1nc2c3cccnc3c3ncccc3c2[nH]1 : viability, T/C came out at 37.9

Hey, 598228-144-R-J1-PDC complex spheroid viability data for COc1ncnc(C2CC2)c1-c1ncc2cnn(Cc3ccc(-c4nc(C(F)(F)F)cn4C(C)C)cc3)c2n1 + Cc1cnc(CNC(=O)c2c(=O)c3ccc(N4CCCN(C)CC4)nc3n3c2sc2ccccc23)cn1 : viability, T/C came out at 62.3

Hey, 598228-144-R-J1-PDC complex spheroid viability data for C=CC(=O)N1CCN(c2nc(=O)n(-c3c(C)ccnc3C(C)C)c3nc(-c4c(O)cccc4F)c(F)cc23)C(C)C1 (stereo unspecified) + Cc1cnc(CNC(=O)c2c(=O)c3ccc(N4CCCN(C)CC4)nc3n3c2sc2ccccc23)cn1 : viability, T/C came out at 69

Hey, 598228-144-R-J1-PDC complex spheroid viability data for CC[C@@]1(O)C(=O)OCc2c1cc1n(c2=O)Cc2cc3c(CN(C)C)c(O)ccc3nc2-1 + CN(C)c1ccc(Nc2c3ccc(NC(=O)CCN4CCCC4)cc3nc3cc(NC(=O)CCN4CCCC4)ccc23)cc1 : viability, T/C came out at 94.6

Hey, 598228-144-R-J1-PDC complex spheroid viability data for COc1ccc([C@@H](O)c2cc(-c3ncnc4cc(N5CCOCC5)ccc34)c(F)cc2Cl)nn1 + Cc1cnc(CNC(=O)c2c(=O)c3ccc(N4CCCN(C)CC4)nc3n3c2sc2ccccc23)cn1 : viability, T/C came out at 50

Hey, 598228-144-R-J1-PDC complex spheroid viability data for C=CC(=O)N1CCN(c2nc(=O)n(-c3c(C)ccnc3C(C)C)c3nc(-c4c(O)cccc4F)c(F)cc23)C(C)C1 (stereo unspecified) + Cc1[nH]c2ccc(F)cc2c1-c1nc2c3cccnc3c3ncccc3c2[nH]1 : viability, T/C came out at 36.1

Hey, 598228-144-R-J1-PDC complex spheroid viability data for CC1COCCN1c1cc(C2(O)CC3CCC(C2)O3)c2cnn(-c3ccn[nH]3)c2n1 (stereo unspecified) + CN(C)c1ccc(Nc2c3ccc(NC(=O)CCN4CCCC4)cc3nc3cc(NC(=O)CCN4CCCC4)ccc23)cc1 : viability, T/C came out at 61.8

* * *

- Test system: 598228-144-R-J1-PDC complex spheroid viability
- assay protocol: Anticancer human tumor 598228-144-R-J1-PDC cell line growth inhibition [GQUAD]; active = viability on the fitted dose curve at most 10% of control; inactive = the rest;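 note: spheroids exposed to the agents for one week before reading; percent of vehicle DMSO control viability so 100% = untreated growth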
- conditions: second compound 10 µM; first compound 0.00999 µM
Permitted responses: true (1) for active, false (0) for inactive

compound: CCc1c2c(nc3ccc(O)cc13)-c1cc3c(c(=O)n1C2)COC(=O)[C@]3(O)CC + Cc1cnc(CNC(=O)c2c(=O)c3ccc(N4CCCN(C)CC4)nc3n3c2sc2ccccc23)cn1
target or system: 598228-144-R-J1-PDC complex spheroid viability
label value: false (0)
--
compound: Cc1[nH]c2ccccc2c1CCNCc1ccc(/C=C/C(=O)NO)cc1 + Cc1cnc(CNC(=O)c2c(=O)c3ccc(N4CCCN(C)CC4)nc3n3c2sc2ccccc23)cn1
target or system: 598228-144-R-J1-PDC complex spheroid viability
label value: true (1)

Ask: Per the records of this test, what outcome belongs to Cn1ncnc1[C@H]1c2n[nH]c(=O)c3cc(F)cc(c23)N[C@@H]1c1ccc(F)cc1 + Cc1cnc(CNC(=O)c2c(=O)c3ccc(N4CCCN(C)CC4)nc3n3c2sc2ccccc23)cn1 ?
Reply: false (0)

* * *

- Tested on: 598228-144-R-J1-PDC complex spheroid viability
- assay protocol: Anticancer human tumor 598228-144-R-J1-PDC cell line growth inhibition [GQUAD];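 note: spheroids exposed to the agents for one week before reading; percent of vehicle DMSO control viability so 100% = untreated growth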
- conditions: second compound 1 µM; first compound 1 µM; stronger effect = lower value
- Text: DNA G-quadruplex Stabilizer Agents in Combinations in Complex Spheroids A high-throughput screen of multi-cell type tumor spheroids was designed to identify active combinations of DNA G-quadruplex stabilizer agents and targeted small molecules. […] Compounds. […] If the clinical Cmax for an agent had not been determined, the highest concentration tested was 10 microM. […]
Each item that follows carries a reported viability, T/C.
Field format: number, assumed %, no unit text.

molecule: O=c1[nH]cc(F)c(=O)[nH]1 + CN(C)c1ccc(Nc2c3ccc(NC(=O)CCN4CCCC4)cc3nc3cc(NC(=O)CCN4CCCC4)ccc23)cc1
target or system: 598228-144-R-J1-PDC complex spheroid viability
viability, T/C (%): 99.1

Form: molecule = CC(C)n1c(=O)n(C)c2cnc3cc(F)c(-c4ccc(OCCCN5CCCCC5)nc4)cc3c21 + Cc1cnc(CNC(=O)c2c(=O)c3ccc(N4CCCN(C)CC4)nc3n3c2sc2ccccc23)cn1 ; viability, T/C = 56.5

Form: molecule = Nc1ccn(C2OC(CO)C(O)C2(F)F)c(=O)n1 (centres undefined) + CN(C)c1ccc(Nc2c3ccc(NC(=O)CCN4CCCC4)cc3nc3cc(NC(=O)CCN4CCCC4)ccc23)cc1 ; viability, T/C = 33.1

Form: molecule = CC(=O)O[C@H]1C(=O)[C@@]2(C)[C@H]([C@H](OC(=O)c3ccccc3)[C@]3(O)C[C@H](OC(=O)[C@H](O)[C@@H](NC(=O)c4ccccc4)c4ccccc4)C(C)=C1C3(C)C)[C@]1(OC(C)=O)CO[C@@H]1C[C@@H]2O + Cc1cnc(CNC(=O)c2c(=O)c3ccc(N4CCCN(C)CC4)nc3n3c2sc2ccccc23)cn1 ; viability, T/C = 50

* * *

- System: 598228-144-R-J1-PDC complex spheroid viability
- assay protocol: Anticancer human tumor 598228-144-R-J1-PDC cell line growth inhibition [GQUAD]; active = viability on the fitted dose curve at most 10% of control; inactive = the rest;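 note: spheroids exposed to the agents for one week before reading; percent of vehicle DMSO control viability so 100% = untreated growth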
- conditions: second compound 10 µM; first compound 10 µM
Permitted responses: true (1) (active), false (0) (inactive)

Use the examples below as a reference point.
molecule: CC(=O)O[C@H]1C(=O)[C@@]2(C)[C@H]([C@H](OC(=O)c3ccccc3)[C@]3(O)C[C@H](OC(=O)[C@H](O)[C@@H](NC(=O)c4ccccc4)c4ccccc4)C(C)=C1C3(C)C)[C@]1(OC(C)=O)CO[C@@H]1C[C@@H]2O + CN(C)c1ccc(Nc2c3ccc(NC(=O)CCN4CCCC4)cc3nc3cc(NC(=O)CCN4CCCC4)ccc23)cc1
label value: false (0)

molecule: CCCS(=O)(=O)Nc1ccc(F)c(C(=O)c2c[nH]c3ncc(-c4ccc(Cl)cc4)cc23)c1F + Cc1cnc(CNC(=O)c2c(=O)c3ccc(N4CCCN(C)CC4)nc3n3c2sc2ccccc23)cn1
label value: false (0)

molecule: C=CCn1c(=O)c2cnc(Nc3ccc(N4CCN(C)CC4)cc3)nc2n1-c1cccc(C(C)(C)O)n1 + Cc1cnc(CNC(=O)c2c(=O)c3ccc(N4CCCN(C)CC4)nc3n3c2sc2ccccc23)cn1
label value: true (1)

--- query ---
Ask: Per the records of this test, what outcome belongs to O=C(c1cc(Cc2n[nH]c(=O)c3ccccc23)ccc1F)N1CCN(C(=O)C2CC2)CC1 + Cc1cnc(CNC(=O)c2c(=O)c3ccc(N4CCCN(C)CC4)nc3n3c2sc2ccccc23)cn1 ?
Reply: false (0)

* * *

Each item that follows carries a reported viability, T/C.
- Tested on: 598228-144-R-J1-PDC complex spheroid viability
- assay protocol: Anticancer human tumor 598228-144-R-J1-PDC cell line growth inhibition [GQUAD];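 note: spheroids exposed to the agents for one week before reading; percent of vehicle DMSO control viability so 100% = untreated growth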
- conditions: second compound 0.0316 µM; first compound 10 µM; stronger effect = lower value
Field format: number, assumed %, no unit text.

molecule: O=C(c1cc(Cc2n[nH]c(=O)c3ccccc23)ccc1F)N1CCN(C(=O)C2CC2)CC1 + CN(C)c1ccc(Nc2c3ccc(NC(=O)CCN4CCCC4)cc3nc3cc(NC(=O)CCN4CCCC4)ccc23)cc1
target or system: 598228-144-R-J1-PDC complex spheroid viability
viability, T/C (%): 75.8

molecule: CC1COCCN1c1cc(C2(S(C)(=N)=O)CC2)nc(-c2ccnc3[nH]ccc23)n1 (stereo not drawn) + Cc1cnc(CNC(=O)c2c(=O)c3ccc(N4CCCN(C)CC4)nc3n3c2sc2ccccc23)cn1
target or system: 598228-144-R-J1-PDC complex spheroid viability
viability, T/C (%): 36.9

Then this molecule:
Hey, 598228-144-R-J1-PDC complex spheroid viability data for Cc1cccc(N(C)C(=O)C2C(O)CCN2c2nc(C)cc(C(F)(F)F)c2C#N)c1 (stereo not drawn) + Cc1[nH]c2ccc(F)cc2c1-c1nc2c3cccnc3c3ncccc3c2[nH]1 : viability, T/C came out at 100
